Where do these numbers come from? They come from paper PMC7464788.

Test system: methicillin-resistant S. aureus (MRSA) (NCTC12493)
Format: cell-based, Staphylococcus aureus
Positions of bridges follow the written chain, without caps; N, C: chain ends. Residues, ends and D or L forms follow the SMILES beside them.
quantity: MIC MRSA (µM)

molecule | quantity | val
CC[C@H](C)[C@@H]1NC(=O)[C@H](C)NC(=O)[C@@H](NC(=O)[C@H](Cc2ccccc2)NC(=O)[C@H](Cc2c[nH]c3ccccc23)NC(=O)[C@H](CCCCN)NC(=O)[C@H](Cc2c[nH]c3ccccc23)NC(=O)[C@@H]2CCCN2C(=O)[C@H](CC(C)C)NC(=O)[C@H](Cc2ccccc2)NC(=O)[C@@H](N)CCCCN)CSSC[C@@H](C(=O)O)NC(=O)[C@H](CCCCN)NC(=O)[C@H](CCCCN)NC(=O)[C@H]([C@@H](C)O)NC1=O [KW^5,7B2] (H-KFLPWKWFCAITKKC-OH; disulfide 9-15) | MIC MRSA | 8
